# SYSTEM: Cytochrome P450 2C9 (Homo sapiens)
# ASSAY_DETAILS: Cytochrome panel assay with activity outcomes
# RUN_PARAMETERS: recombinant CYP, pro-luciferin dealkylation, luminescence, p450-cyp2c9; series mostly up to 57.1 µM
About 4,000 (25%) of roughly 16,000 compounds were called active. Inconclusive results (about 26%) are left out. The call rests on the fitted dose curve; in most records, active means well fitted curve in the direction sought with a large enough effect; inconclusive means small, poorly fitted or top-dose-only effect, or effect the other way; inactive means no such curve, though single readings can be large or run the other way. Only a sample is shown.
Give one outcome, nothing more. List: 1 (yes) (active), 0 (no) (inactive)

State the result this test recorded for `O=S(=O)(c1ccccc1)N1CCC2(CC1)CN(C(c1ccccc1)c1ccccc1)C2` .
1 (yes)

So what was the verdict on CCOC(=O)c1c(NC(=S)NC(=O)c2cnn(CC)c2)sc2c1CCC(C)C2 (stereo not given) in this test?
1 (yes)

Assay outcome for `CCNc1ccc(Br)cc(C(=O)/C=C/c2ccc3c(c2)OCO3)c1=O` : what was it?
1 (yes)

I would be grateful if you could indicate the recorded call for `CC(C)CCn1c(Oc2ccccc2Cl)nc2c1c(=O)n(C)c(=O)n2C` .
1 (yes)

Test call for this compound, please: `CS(=O)(=O)N1CCC2(CCN(C(c3ccccc3)c3ccccc3)CC2)CC1`
0 (no)

Test call, this compound: `O=C(N/N=C/c1c[nH]c2ccccc12)c1ccn(Cc2ccc(Cl)cc2Cl)n1`
1 (yes)

# lookup: test call for CCOC(=O)C1CN(S(=O)(=O)c2cccc(C(F)(F)F)c2)c2cc(CC(=O)OC)ccc2O1 (stereo not given)
1 (yes)

// return assay outcome for `COc1ccc(O[C@H]2C=C[C@@H](c3ccccc3)O[C@H]2CO/N=C2/c3cc(OC)ccc3O[C@@H](c3cccc(OC)c3)[C@H]2O)cc1`
1 (yes)

How was `CNc1cc(CSC)nc(SCc2ccc(Cl)c(Cl)c2)n1` classified in this test?
1 (yes)

Any idea what this test logged for `Cc1ccsc1/C=N/Nc1nc(Cl)c(Cl)cc1Cl` ?
0 (no)

* * *

# SYSTEM: Cytochrome P450 2C9 (Homo sapiens) (UniProt P11712)
# Sequence (P11712 whole entry, looked up): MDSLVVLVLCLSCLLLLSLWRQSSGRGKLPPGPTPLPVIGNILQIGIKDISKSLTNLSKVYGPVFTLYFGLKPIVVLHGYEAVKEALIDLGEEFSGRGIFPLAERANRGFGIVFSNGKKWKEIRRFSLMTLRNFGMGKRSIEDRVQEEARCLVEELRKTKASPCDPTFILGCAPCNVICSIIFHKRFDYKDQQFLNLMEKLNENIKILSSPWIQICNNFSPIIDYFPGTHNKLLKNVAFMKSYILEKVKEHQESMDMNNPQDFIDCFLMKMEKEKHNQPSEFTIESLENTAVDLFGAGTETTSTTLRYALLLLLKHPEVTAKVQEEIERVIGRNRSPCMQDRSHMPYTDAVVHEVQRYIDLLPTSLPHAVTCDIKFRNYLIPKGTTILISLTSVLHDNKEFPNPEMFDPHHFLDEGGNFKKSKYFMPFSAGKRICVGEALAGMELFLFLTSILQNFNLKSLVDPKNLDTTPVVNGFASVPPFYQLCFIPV
# ASSAY_DETAILS: Cytochrome panel assay with activity outcomes
# RUN_PARAMETERS: recombinant CYP, pro-luciferin dealkylation, luminescence, p450-cyp2c9; series mostly up to 57.1 µM
The whole screen tested about 16,000 compounds, of which about 4,000 (25%) were called active. Another 26% or so got no clear call; they are omitted. The list is a sample of the results.
PROPERTY_LABEL: AC50

The examples below pair each entry with its known result.
| COMPOUND | MEASUREMENT |
| --- | --- |
| CCc1noc(N)c1C(=O)Nc1ccc(F)c(Cl)c1 | 14.1 µM (active) |
| CCCCNC(=O)NS(=O)(=O)c1ccc(C(=O)OC(C)C)o1 | 2.82 µM (active) |
| O=C(c1ccco1)N1CCC2(CC1)CCN(c1ccccc1)CC2 | inactive |
| CC1(C)CC(=O)C(CCC(=O)c2ccccc2)C(C)(C)N1 (stereo unspecified) | inactive |
| CCCCc1cc2ccccc2c(OCCN(C)C)n1 | inactive |

We next turn to a different compound, shown below.
Requested read-out: AC50. Entry: `CC(=O)N1CCc2cc(Br)cc(S(=O)(=O)N3CCN(C(=O)c4ccco4)CC3)c21`
5.01 µM (active)

* * *

activity, negative = inhibition values by entry
# SYSTEM: Cytochrome P450 2C9 (Homo sapiens) (UniProt P11712)
# ASSAY_DETAILS: Cytochrome panel assay with activity outcomes; on activity, negative = inhibition: on the % scale 0 is the no-effect control and ±100 the full control effect
# RUN_PARAMETERS: recombinant CYP, pro-luciferin dealkylation, luminescence, p450-cyp2c9; series mostly up to 57.1 µM
The whole screen tested about 16,000 compounds, of which about 4,000 (25%) were called active. Not shown: some 26% with an inconclusive outcome. A selection follows.

Consider the reported activity, negative = inhibition for these molecules:
| MOLECULE | PROPERTY_LABEL | MEASUREMENT |
| --- | --- | --- |
| COc1cccc(-c2ccc3ncnc(NC4CCNCC4)c3c2)c1 | activity, negative = inhibition | 19.4% [at 2.29 µM] (inactive) |
| N#Cc1cccc(-c2nc(NCCN3CCOCC3)c3ccccc3n2)c1 | activity, negative = inhibition | 5.64% [at 2.29 µM] (inactive) |
| O=C1O[C@@H]([C@H](O)[C@H](O)[C@H](O)CO)[C@@H](O)[C@@H]1O | activity, negative = inhibition | -8.59% [at 11.4 µM] (inactive) |
| C=C1C=C(Br)C2(OCCCO2)[C@H]2OC12 (some centres not stated) | activity, negative = inhibition | 13.6% [at 11.4 µM] (inactive) |
| Cc1noc(C)c1-c1nccc(N2CCN(C)CC2)n1 | activity, negative = inhibition | 14.4% [at 2.29 µM] (inactive) |

Value wanted: activity, negative = inhibition (Cytochrome P450 2C9 (Homo sapiens) (UniProt P11712)) of entry `CN1CCN(c2ncncc2-c2ccoc2)CC1`
17.1% [at 2.29 µM] (inactive)

Report activity, negative = inhibition for `Nc1ncnc2c1ncn2[C@H]1O[C@@H](C(=O)O)[C@@H](O)[C@H]1O` tested on Cytochrome P450 2C9 (Homo sapiens) (UniProt P11712).
20% [at 11.4 µM] (inactive)

Quick check: activity, negative = inhibition on Cytochrome P450 2C9 (Homo sapiens) (UniProt P11712), item `CN1CCN(c2ncncc2-c2ccc(C(=O)N(C)C)cc2)CC1` ?
16.3% [at 2.29 µM] (inactive)

GET /values?readout=activity, negative = inhibition&system=Cytochrome P450 2C9 (Homo sapiens) (UniProt P11712)&item= `C[C@H]1COC(=O)[C@H]2CCCN2C(=O)[C@@H](C)COC(=O)[C@H](Cc2ccccc2)NC1=O`
13.4% [at 11.4 µM] (inactive)

Query for Cytochrome P450 2C9 (Homo sapiens) (UniProt P11712): what activity, negative = inhibition does the record show for `CC(=O)N[C@H](Cc1ccc(O)cc1)C(=O)O` ?
2.06% [at 11.4 µM] (inactive)

Requested read-out activity, negative = inhibition, target or system Cytochrome P450 2C9 (Homo sapiens) (UniProt P11712), entry `N=C(N)SCC(=O)O`
-5.65% [at 11.4 µM] (inactive)

Lab note: need activity, negative = inhibition for C=CC1=C[C@@H](O)C2OC2C12OCCCO2 (some centres not stated) on Cytochrome P450 2C9 (Homo sapiens) (UniProt P11712), anyone have it?
12.2% [at 11.4 µM] (inactive)

Find activity, negative = inhibition (Cytochrome P450 2C9 (Homo sapiens) (UniProt P11712)) for the entry `CO[C@H]1COC(=O)[C@@H](CCSC)NC(=O)C/C=C\[C@@H](C)[C@H](OC)COC(=O)[C@@H](OCc2ccccc2)/C=C\[C@@H]1C`
19.4% [at 11.4 µM] (inactive)

Tell me reported activity, negative = inhibition for `COc1cc2c(cc1OC)C(CCN)=NCC2` , tested with Cytochrome P450 2C9 (Homo sapiens) (UniProt P11712).
-3.31% [at 11.4 µM] (inactive)

Under Cytochrome P450 2C9 (Homo sapiens) (UniProt P11712): activity, negative = inhibition value of `COc1ccc(COC(=O)N/N=C2/C[C@@H](O)[C@@H](O)[C@@H]3[C@H]4C(=O)N(c5ccc(F)cc5F)C(=O)[C@@H]4CC[C@@H]23)cc1` ?
-15.8% [at 11.4 µM] (inactive)

* * *

# SYSTEM: Cytochrome P450 2C9 (Homo sapiens) (UniProt P11712)
# ASSAY_DETAILS: Cytochrome panel assay with activity outcomes
# RUN_PARAMETERS: recombinant CYP, pro-luciferin dealkylation, luminescence, p450-cyp2c9; series mostly up to 57.1 µM
Screen size: about 16,000 compounds; about 4,000 (25%) were called active. Not shown: some 26% with an inconclusive outcome. Not all results are given here.
PROPERTY_LABEL: AC50

Completed entries (count: 10):
| MOLECULE | MEASUREMENT |
| --- | --- |
| O=C1c2ccccc2C2=Nc3ccccc3SC(c3ccccc3F)C12 (stereo unspecified) | 0.0891 µM (active) |
| C[C@@H](CCCCC(=O)Nc1ccc(C(F)(F)F)cc1)NCCc1cnc[nH]1 | 7.94 µM (active) |
| COc1ccc(NC(=O)c2cc3n(n2)C(C(F)(F)F)CC(c2ccc4c(c2)OCO4)N3)cc1OC (stereo unspecified) | inactive |
| C/C(=N\OC(=O)c1ccccc1F)c1nccs1 | inactive |
| NCCC(=O)NCCc1cnc[nH]1 | inactive |
| CCOC(=O)c1c(C)nc2c(c1-c1ccc(OC)cc1)C(=O)CC(C)(C)C2 | 15.8 µM (active) |
| CCOC(=O)c1c(C)nc2c(c1-c1ccccc1)C(=O)CCC2 | 17.8 µM (active) |
| O=C(NCC1CCCO1)c1ccc(CS(=O)(=O)Cc2ccc(F)cc2)o1 (stereo unspecified) | inactive |
| CCNc1ncc2nc(-c3cc(F)cc(F)c3)c(=O)n(Cc3cccs3)c2n1 | inactive |
| O=S(=O)(NCc1cccnc1)c1ccc(Cl)nc1 | inactive |

Return reported AC50; argument: `COCc1cc(=O)[nH]c2cc(NC(=O)C(F)(F)F)c(C)cc12`
inactive
